Values from the kinase profiling compilation of Christmann-Franck et al. (2016)

# reported kinase still bound, per cent of control; entries follow
target: TGFBR2 (human); assay: KINOMEscan competition binding; details: compound 10.0 µM
Output spec: scalar in %, unitless text.

In: Suppose we examine the compound "CS(=O)(=O)Nc1ccc(-c2cncc(/C=C3\SC(=N)NC3=O)c2)cc1" ; what kinase still bound, per cent of control value has been reported?
Out: 1.7

In: Suppose we examine the compound "CS(=O)(=O)Nc1ccc(-c2ncc(/C=C3\SC(=N)NC3=O)s2)cc1" ; what kinase still bound, per cent of control value has been reported?
Out: 12

In: Suppose we examine the compound "N=C1NC(=O)/C(=C/c2ccc(-c3ccc(F)cc3)o2)S1" ; what kinase still bound, per cent of control value has been reported?
Out: 7.8

In: Suppose we examine the compound "CC(=O)Nc1ccc(-c2ccc(/C=C3\SC(=N)NC3=O)o2)c(O)c1" ; what kinase still bound, per cent of control value has been reported?
Out: 13

In: Suppose we examine the compound "O=C1NC(=S)S/C1=C\c1ccc(-c2cncc3ccccc23)o1" ; what kinase still bound, per cent of control value has been reported?
Out: 5.2

====

biological target: NTRK1 (human) (UniProt P04629); test: KINOMEscan competition binding; settings: compound 10.0 µM
Sequence (P04629 whole entry, looked up): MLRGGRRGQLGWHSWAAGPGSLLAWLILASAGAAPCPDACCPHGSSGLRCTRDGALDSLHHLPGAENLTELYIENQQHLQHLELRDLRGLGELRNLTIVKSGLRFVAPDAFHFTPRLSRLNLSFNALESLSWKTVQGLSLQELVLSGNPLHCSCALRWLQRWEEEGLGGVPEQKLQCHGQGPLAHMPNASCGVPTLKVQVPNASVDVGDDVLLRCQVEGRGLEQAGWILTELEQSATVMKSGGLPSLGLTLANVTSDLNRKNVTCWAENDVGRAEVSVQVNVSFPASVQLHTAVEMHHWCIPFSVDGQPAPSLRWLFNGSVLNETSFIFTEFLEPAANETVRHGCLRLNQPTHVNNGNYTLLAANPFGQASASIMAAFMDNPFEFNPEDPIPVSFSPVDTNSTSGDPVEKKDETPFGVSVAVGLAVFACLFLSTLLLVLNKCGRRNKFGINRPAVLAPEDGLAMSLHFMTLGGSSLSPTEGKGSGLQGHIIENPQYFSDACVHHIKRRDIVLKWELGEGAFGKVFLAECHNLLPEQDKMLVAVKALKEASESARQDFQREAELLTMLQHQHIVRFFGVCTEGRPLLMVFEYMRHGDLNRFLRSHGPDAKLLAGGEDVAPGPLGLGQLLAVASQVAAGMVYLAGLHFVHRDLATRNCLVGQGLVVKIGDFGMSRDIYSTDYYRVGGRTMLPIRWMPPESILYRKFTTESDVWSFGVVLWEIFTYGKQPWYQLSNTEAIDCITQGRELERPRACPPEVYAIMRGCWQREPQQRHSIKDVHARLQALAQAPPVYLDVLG
EXPERIMENTAL ENDPOINT: kinase still bound, per cent of control (%)
Output spec: scalar in %, unitless text.

The cases that follow already have their kinase still bound, per cent of control on record.
In: Suppose we examine the compound "CN1C(=O)c2ccccc2N(C)c2nc(Nc3ccc(N4CCC(O)CC4)cc3)ncc21" ; what kinase still bound, per cent of control value has been reported?
Out: 64

In: Suppose we examine the compound "COc1cc(N2CCN(C)CC2)ccc1Nc1ncc2c(n1)N(C)c1ccccc1N(C)C2=O" ; what kinase still bound, per cent of control value has been reported?
Out: 76

In: Suppose we examine the compound "COc1cc(N2CCN(C)CC2)ccc1Nc1ncc2c(n1)N(C)c1sccc1C(=O)N2C" ; what kinase still bound, per cent of control value has been reported?
Out: 60

In: Suppose we examine the compound "COc1cc(N2CCC(O)CC2)ccc1Nc1ncc2c(n1)N1CCc3cccc(c31)C(=O)N2C" ; what kinase still bound, per cent of control value has been reported?
Out: 82

In: Suppose we examine the compound "COc1cc(N2CCN(C)CC2)ccc1Nc1ncc2c(n1)Nc1ccccc1NC2=O" ; what kinase still bound, per cent of control value has been reported?
Out: 1.6

In: Suppose we examine the compound "CN1CCN(c2ccc(C(=O)Nc3ncc4c(n3)N(C)c3ccccc3C(=O)N4C)cc2)CC1" ; what kinase still bound, per cent of control value has been reported?
Out: 82

In: Suppose we examine the compound "O=C1NC(=O)/C(=C/c2c[nH]c(=O)c(-c3ccc(N4CCNCC4)nc3)c2)S1" ; what kinase still bound, per cent of control value has been reported?
Out: 78

Next:
In: Suppose we examine the compound "CN1C(=O)c2ccccc2N(C)c2nc(NS(=O)(=O)c3ccc(N)cc3)ncc21" ; what kinase still bound, per cent of control value has been reported?
Out: 77

====

target: PAK2 (human); assay: KINOMEscan competition binding; settings: compound 10.0 µM
# reported kinase still bound, per cent of control; entries follow
Output spec: scalar in %, unitless text.

In: Observed kinase still bound, per cent of control on PAK2 (human) for "COc1cc(N2CCN(C)CC2)ccc1Nc1ncc2c(n1)N(C)c1ccccc1N(C)C2=O" , please.
Out: 94

More entries:
In: Observed kinase still bound, per cent of control on PAK2 (human) for "CN1C(=O)c2ccccc2N(C)c2nc(NS(=O)(=O)c3ccc(N)cc3)ncc21" , please.
Out: 100

In: Observed kinase still bound, per cent of control on PAK2 (human) for "N=C1NC(=O)/C(=C/c2c[nH]c(=O)c(-c3ccc4cc[nH]c4c3)c2)S1" , please.
Out: 34

In: Observed kinase still bound, per cent of control on PAK2 (human) for "CN1CCN(c2ccc(C(=O)Nc3ncc4c(n3)N(C)c3ccccc3C(=O)N4C)cc2)CC1" , please.
Out: 100

In: Observed kinase still bound, per cent of control on PAK2 (human) for "O=C1NC(=O)/C(=C/c2c[nH]c(=O)c(-c3ccc(N4CCNCC4)nc3)c2)S1" , please.
Out: 53

In: Observed kinase still bound, per cent of control on PAK2 (human) for "N=C1NC(=O)/C(=C/c2ccc(-c3cncc4ccccc34)o2)S1" , please.
Out: 24
